target: CCR1 (Homo sapiens); construct: host or cells: Non-adherent cells; assay: Calcium flux in CCR1 transfected cells, Method A (Fluo-4 NW dye, FLIPR TETRA), MIP-1 alpha at EC80; format: cell-based; conditions: cells stably expressing recombinant CCR1 and G-alpha-16, 1 hour at room temperature
readout.name: pIC50
Note on units: pIC50 is unitless, being -log10 of a concentration expressed in mol/L.

Please give the measured pIC50 for this molecule: CCCC(NC(=O)c1cccn2c(-c3ccc(F)cc3)ncc12)c1ccc(S(C)(=O)=O)nc1 (centres unmarked)
8.15

Please give the measured pIC50 for this molecule: `CS(=O)(=O)c1cccc(CNC(=O)c2cccn3c(-c4ccc(F)cc4)ncc23)c1`
6.52

Please give the measured pIC50 for this molecule: `O=C(NCc1ccc(Br)nc1)c1cccn2c(-c3ccc(F)cc3)ncc12`
6.37

Please give the measured pIC50 for this molecule: `O=C(NCc1cccc(C(F)(F)F)c1)c1cccn2c(-c3ccc(F)cc3)ncc12`
7.74

Please give the measured pIC50 for this molecule: `CS(=O)(=O)c1cc(CNC(=O)c2cccn3c(-c4ccc(F)cc4)ncc23)ccn1`
6.55

Please give the measured pIC50 for this molecule: `CS(=O)(=O)c1ccc(CNC(=O)c2cccn3c(-c4ccc(F)cc4)ncc23)cn1`
6.25

Please give the measured pIC50 for this molecule: `O=C(NCc1ccnc(Br)c1)c1cccn2c(-c3ccc(F)cc3)ncc12`
7.96

Please give the measured pIC50 for this molecule: `O=C(NCc1cccc(C(F)(F)F)c1)c1cccn2c(-c3ccc(Cl)c(Cl)c3)ncc12`
6.09

---

molecular target: CCR1 (Homo sapiens, UniProt P32246); construct: host or cells: Non-adherent cells; assay: Calcium flux in CCR1 transfected cells, Method B (Calcium 4 dye, HAMAMATSU FDSS6000), MIP-1alpha at EC80; type: cell-based; settings: cells stably expressing recombinant CCR1 and G-alpha-16, 30 minutes at 37 C then 30 minutes at room temperature
Sequence (P32246 whole entry): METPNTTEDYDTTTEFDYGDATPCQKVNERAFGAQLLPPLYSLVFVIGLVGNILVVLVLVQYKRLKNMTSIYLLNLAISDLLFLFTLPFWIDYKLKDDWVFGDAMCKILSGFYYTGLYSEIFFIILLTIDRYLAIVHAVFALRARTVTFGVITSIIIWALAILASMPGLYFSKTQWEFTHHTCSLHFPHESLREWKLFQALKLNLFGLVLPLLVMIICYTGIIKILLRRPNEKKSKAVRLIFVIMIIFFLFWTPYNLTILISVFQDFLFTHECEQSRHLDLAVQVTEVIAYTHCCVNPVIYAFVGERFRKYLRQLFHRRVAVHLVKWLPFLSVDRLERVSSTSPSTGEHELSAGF
readout.name: log10(IC50) (log10 of the value in µM)
Would you kindly interpret these values as log10 of IC50 expressed in µM?

Quick check: log10(IC50) on CCR1 (Homo sapiens, UniProt P32246), item `CC[C@H](NC(=O)c1cccn2c(-c3ccc(F)cc3)ncc12)c1ccc(S(C)(=O)=O)nc1` ?
-1.77

Quick check: log10(IC50) on CCR1 (Homo sapiens, UniProt P32246), item `CC[C@H](NC(=O)c1cccc2c(-c3ccc(F)cc3)ncn12)c1ccc(S(C)(=O)=O)nc1` ?
-1.72

Quick check: log10(IC50) on CCR1 (Homo sapiens, UniProt P32246), item `CCC[C@H](NC(=O)c1nccn2c(-c3ccc(F)cc3)ncc12)c1cncc(S(C)(=O)=O)c1` ?
-2.22

Quick check: log10(IC50) on CCR1 (Homo sapiens, UniProt P32246), item `CNS(=O)(=O)c1ccc(CNC(=O)c2cc(O)cc3c2ccn3-c2ccc(F)cc2)cc1` ?
0.15

Quick check: log10(IC50) on CCR1 (Homo sapiens, UniProt P32246), item `CS(=O)(=O)c1ccc(CNC(=O)c2cc(C#N)cc3c2ccn3-c2ccc(F)cc2)cn1` ?
-2.40

Quick check: log10(IC50) on CCR1 (Homo sapiens, UniProt P32246), item `CC[C@H](NC(=O)c1nncc2c1cnn2-c1ccc(F)cc1)c1ccnc(S(C)(=O)=O)c1` ?
-2.52

Quick check: log10(IC50) on CCR1 (Homo sapiens, UniProt P32246), item `CC[C@H](NC(=O)c1cncc2c1ccn2-c1ccc(F)cc1)c1ccnc(S(C)(=O)=O)c1` ?
-2.70

Quick check: log10(IC50) on CCR1 (Homo sapiens, UniProt P32246), item `CC[C@H](NC(=O)c1cccc2c(-c3ccc(F)cc3)ncn12)c1ccc(Br)nc1` ?
-1.02

Quick check: log10(IC50) on CCR1 (Homo sapiens, UniProt P32246), item `CS(=O)(=O)Nc1ccc(CNC(=O)c2cc(C#N)cc3c2ccn3-c2ccc(F)cc2)cn1` ?
-2.40

Quick check: log10(IC50) on CCR1 (Homo sapiens, UniProt P32246), item `CC[C@H](NC(=O)c1cccn2c(-c3ccc(F)cc3)ncc12)c1ccnc(S(C)(=O)=O)c1` ?
-2.70

Quick check: log10(IC50) on CCR1 (Homo sapiens, UniProt P32246), item `CC[C@H](NC(=O)c1cncc2c1ccn2-c1ccc(F)cc1)c1ccc(S(C)(=O)=O)nc1` ?
-1.68

Quick check: log10(IC50) on CCR1 (Homo sapiens, UniProt P32246), item `CS(=O)(=O)c1cc(CNC(=O)c2nncc3c2cnn3-c2ccc(F)cc2)ccn1` ?
-1.04

Quick check: log10(IC50) on CCR1 (Homo sapiens, UniProt P32246), item `CN1CCC(NS(=O)(=O)c2ccc(CNC(=O)c3cc(C#N)cc4c3ccn4-c3ccc(F)cc3)cc2)CC1` ?
-1.74

Quick check: log10(IC50) on CCR1 (Homo sapiens, UniProt P32246), item `CC[C@H](NC(=O)c1cncc2c1ccn2-c1ccc(F)cc1)c1cncc(S(C)(=O)=O)c1` ?
-2.70

Quick check: log10(IC50) on CCR1 (Homo sapiens, UniProt P32246), item `CC[C@H](NC(=O)c1cccn2c(-c3ccc(F)cc3)ncc12)c1ccc(Br)nc1` ?
-1.54

Quick check: log10(IC50) on CCR1 (Homo sapiens, UniProt P32246), item `CCC[C@H](NC(=O)c1cccn2c(-c3ccc(F)cc3)cnc12)c1ccc(Br)nc1` ?
0.04

Quick check: log10(IC50) on CCR1 (Homo sapiens, UniProt P32246), item `CS(=O)(=O)c1cc(C2(NC(=O)c3cc(C#N)cc4c3ccn4-c3ccc(F)cc3)CC2)ccn1` ?
-3.10

Quick check: log10(IC50) on CCR1 (Homo sapiens, UniProt P32246), item `CS(=O)(=O)c1cc(C2(NC(=O)c3nccn4c(-c5ccc(F)cc5)ncc34)CC2)ccn1` ?
-0.39

Quick check: log10(IC50) on CCR1 (Homo sapiens, UniProt P32246), item `CC[C@H](NC(=O)c1cc(S(C)(=O)=O)cc2c1ccn2-c1ccc(F)cc1)c1ccc(S(C)(=O)=O)nc1` ?
-0.59

Quick check: log10(IC50) on CCR1 (Homo sapiens, UniProt P32246), item `CS(=O)(=O)c1cccc(CNC(=O)c2cncc3c2ccn3-c2ccc(F)cc2)c1` ?
-0.25

Quick check: log10(IC50) on CCR1 (Homo sapiens, UniProt P32246), item `CS(=O)(=O)c1cc(CNC(=O)c2nccn3c(-c4ccc(F)cc4)ncc23)ccn1` ?
-0.22
